System: sludge
ASSAY_COMMENT: Accumulation of sludge at the bottom of the water tank of the circulating test water apparatus
MEASUREMENT_CONTEXT: 120 hours after start of test; agent concentrations as in each example
MEASURED_QUANTITY: Accumulation of sludge amount (mg)
Only the number, expressed in mg, is required.

Fill in Accumulation of sludge amount for record O=C(O)C(O)P(=O)(O)O (centres unmarked) [Comparative Example 13, hydroxy-phosphonoacetic acid] 51.1

Fill in Accumulation of sludge amount for record O=C(O)CCC(CC(=O)O)(C(=O)O)P(=O)(O)O (centres unmarked) [Comparative Example 10] 55.5

Fill in Accumulation of sludge amount for record CC(O)(P(=O)(O)O)P(=O)(O)O [Comparative Example 9] 39.6

Fill in Accumulation of sludge amount for record O=C(O)CCC(CC(=O)O)(C(=O)O)P(=O)(O)O (centres unmarked) [Comparative Example 11] 48.8

Fill in Accumulation of sludge amount for record CC(O)(P(=O)(O)O)P(=O)(O)O [Comparative Example 8] 42.8
